Would you mind telling me the reported pIC50 of each entry?
biological target: UniProt P15090; assay: Inhibition of FABP4 (unknown origin) incubated for 10 mins by fluorescence based analysis
Sequence (P15090 whole entry): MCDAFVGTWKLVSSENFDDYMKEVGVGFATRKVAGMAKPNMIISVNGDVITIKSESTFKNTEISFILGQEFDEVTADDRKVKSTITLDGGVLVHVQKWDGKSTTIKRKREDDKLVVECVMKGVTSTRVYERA
When answering, recall that pIC50 equals minus log10 of the concentration in mol/L, and write that number alone.

Value of pIC50 reported for the molecule O=C(O)Cc1cn(-c2ccccc2-c2nc(-c3ccc(Cl)cc3)c(-c3ccccc3)s2)nn1 is 5.37

pIC50 reading for O=C(O)Cc1cn(-c2ccccc2-c2nc(-c3ccccc3)c(-c3ccccc3)s2)nn1 : 5.25

Input O=C(O)Cc1cn(-c2ccccc2-c2nc(-c3ccc4ccccc4c3)c(-c3ccccc3)s2)nn1 . Output pIC50: 5.43

Lookup result for C=CCn1c(=O)[nH]c(=O)c2[nH]c(-c3ccc(OCCNC(=O)c4ccccc4)cc3)cc21 ; measured pIC50: 5.65
